molecular target: bovine serum albumin (BSA) (Bos taurus); construct: purchased Sigma–Aldrich Co; experiment: Albumin binding by tryptophan fluorescence quenching (BSA); settings: BSA, final value, pH 7.0
PROPERTY NAME: % relative BSA fluorescence emission intensity I/Io remaining (% of initial) (%)
Give the value, in units of %, as a plain number.

Request: # % relative BSA fluorescence emission intensity I/Io remaining (% of initial) lookup, item O=Cc1cc(F)ccc1[O-].O=Cc1cc(F)ccc1[O-].[Cu+2] [Complex 1, [Cu(5–F–salo)2]]
Result: 37.5

Request: # % relative BSA fluorescence emission intensity I/Io remaining (% of initial) lookup, item CO.Cc1ccc2ccc3ccc(C)nc3c2n1.O=Cc1cc(F)ccc1[O-].[Cl-].[Cu+2] [Complex 3, [Cu(5–F–salo)(neoc)Cl].CH3OH]
Result: 15.7

Request: # % relative BSA fluorescence emission intensity I/Io remaining (% of initial) lookup, item O=Cc1cc(F)ccc1[O-].O=[N+]([O-])[O-].[Cu+2].c1cnc2c(c1)ccc1cccnc12 [Complex 4, [Cu(5–F–salo)(phen)(NO3)]]
Result: 24.7

Request: # % relative BSA fluorescence emission intensity I/Io remaining (% of initial) lookup, item O=Cc1cc(F)ccc1[O-].[Cl-].[Cu+2].c1ccc(Nc2ccccn2)nc1 [Complex 2, [Cu(5–F–salo)(bipyam)Cl]]
Result: 46.0

----------
For each record, write down the corresponding EB–DNA quenching constant kq.
system: EB–DNA conjugate (CT DNA); assay: EB-displacement studies (fluorescence of EB-DNA conjugate); type: binding, calf; conditions: from KSV with τo = 23 ns

Request: # EB–DNA quenching constant kq lookup, item CO.Cc1ccc2ccc3ccc(C)nc3c2n1.O=Cc1cc(F)ccc1[O-].[Cl-].[Cu+2] [Complex 3, [Cu(5–F–salo)(neoc)Cl].CH3OH]
Result: 1.46 (±0.02) × 10^12 M^−1 s^−1

Request: # EB–DNA quenching constant kq lookup, item O=Cc1cc(F)ccc1[O-].O=Cc1cc(F)ccc1[O-].[Cu+2] [Complex 1, [Cu(5–F–salo)2]]
Result: 6.78 (±0.09) × 10^12 M^−1 s^−1

Request: # EB–DNA quenching constant kq lookup, item O=Cc1cc(F)ccc1[O-].[Cl-].[Cu+2].c1ccc(Nc2ccccn2)nc1 [Complex 2, [Cu(5–F–salo)(bipyam)Cl]]
Result: 2.71 (±0.05) × 10^12 M^−1 s^−1

Request: # EB–DNA quenching constant kq lookup, item O=Cc1cc(F)ccc1[O-].O=[N+]([O-])[O-].[Cu+2].c1cnc2c(c1)ccc1cccnc12 [Complex 4, [Cu(5–F–salo)(phen)(NO3)]]
Result: 2.94 (±0.03) × 10^12 M^−1 s^−1

Request: # EB–DNA quenching constant kq lookup, item O=Cc1cc(F)ccc1[O-].O=[N+]([O-])[O-].[Cu+2].c1ccc(-c2ccccn2)nc1 [Complex 5, [Cu(5–F–salo)(bipy)(NO3)]]
Result: 1.36 (±0.03) × 10^12 M^−1 s^−1

----------
biological target: human serum albumin (HSA) (Homo sapiens); construct: purchased Sigma–Aldrich Co; assay: Albumin binding by tryptophan fluorescence quenching (HSA); details: HSA; Scatchard equation
Sequence (P02768 25-609): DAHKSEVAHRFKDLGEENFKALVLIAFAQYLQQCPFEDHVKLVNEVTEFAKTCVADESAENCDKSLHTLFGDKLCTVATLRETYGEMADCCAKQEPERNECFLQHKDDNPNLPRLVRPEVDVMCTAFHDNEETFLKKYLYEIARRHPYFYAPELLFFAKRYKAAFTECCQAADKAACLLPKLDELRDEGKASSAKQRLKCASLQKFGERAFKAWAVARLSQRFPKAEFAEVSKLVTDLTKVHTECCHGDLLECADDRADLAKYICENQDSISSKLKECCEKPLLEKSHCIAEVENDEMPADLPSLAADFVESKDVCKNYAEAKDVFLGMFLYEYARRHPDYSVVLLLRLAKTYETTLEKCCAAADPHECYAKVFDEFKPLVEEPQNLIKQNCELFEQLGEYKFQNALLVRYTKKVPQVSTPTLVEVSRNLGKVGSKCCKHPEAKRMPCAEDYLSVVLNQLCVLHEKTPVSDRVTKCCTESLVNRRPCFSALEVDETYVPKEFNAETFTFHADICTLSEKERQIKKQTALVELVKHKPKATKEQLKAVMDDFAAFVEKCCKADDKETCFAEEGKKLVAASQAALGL
PROPERTY NAME: HSA-binding constant K

Request: # HSA-binding constant K lookup, item O=Cc1cc(F)ccc1[O-].O=[N+]([O-])[O-].[Cu+2].c1cnc2c(c1)ccc1cccnc12 [Complex 4, [Cu(5–F–salo)(phen)(NO3)]]
Result: 1.70 (±0.09) × 10^6 M^−1

Request: # HSA-binding constant K lookup, item O=Cc1cc(F)ccc1[O-].[Cl-].[Cu+2].c1ccc(Nc2ccccn2)nc1 [Complex 2, [Cu(5–F–salo)(bipyam)Cl]]
Result: 5.09 (±0.29) × 10^5 M^−1

Request: # HSA-binding constant K lookup, item O=Cc1cc(F)ccc1[O-].O=[N+]([O-])[O-].[Cu+2].c1ccc(-c2ccccn2)nc1 [Complex 5, [Cu(5–F–salo)(bipy)(NO3)]]
Result: 1.31 (±0.05) × 10^6 M^−1

Request: # HSA-binding constant K lookup, item CO.Cc1ccc2ccc3ccc(C)nc3c2n1.O=Cc1cc(F)ccc1[O-].[Cl-].[Cu+2] [Complex 3, [Cu(5–F–salo)(neoc)Cl].CH3OH]
Result: 7.16 (±0.40) × 10^5 M^−1

Request: # HSA-binding constant K lookup, item O=Cc1cc(F)ccc1[O-].O=Cc1cc(F)ccc1[O-].[Cu+2] [Complex 1, [Cu(5–F–salo)2]]
Result: 1.58 (±0.09) × 10^5 M^−1

----------
For each record, write down the corresponding ΔΙ/Ιο, quenching of the BSA fluorescence.
molecular target: bovine serum albumin (BSA) (Bos taurus, UniProt P02769); construct: purchased Sigma–Aldrich Co; test: Albumin binding by tryptophan fluorescence quenching (BSA); settings: BSA 3 μM, λex 295 nm
Sequence (P02769 25-607): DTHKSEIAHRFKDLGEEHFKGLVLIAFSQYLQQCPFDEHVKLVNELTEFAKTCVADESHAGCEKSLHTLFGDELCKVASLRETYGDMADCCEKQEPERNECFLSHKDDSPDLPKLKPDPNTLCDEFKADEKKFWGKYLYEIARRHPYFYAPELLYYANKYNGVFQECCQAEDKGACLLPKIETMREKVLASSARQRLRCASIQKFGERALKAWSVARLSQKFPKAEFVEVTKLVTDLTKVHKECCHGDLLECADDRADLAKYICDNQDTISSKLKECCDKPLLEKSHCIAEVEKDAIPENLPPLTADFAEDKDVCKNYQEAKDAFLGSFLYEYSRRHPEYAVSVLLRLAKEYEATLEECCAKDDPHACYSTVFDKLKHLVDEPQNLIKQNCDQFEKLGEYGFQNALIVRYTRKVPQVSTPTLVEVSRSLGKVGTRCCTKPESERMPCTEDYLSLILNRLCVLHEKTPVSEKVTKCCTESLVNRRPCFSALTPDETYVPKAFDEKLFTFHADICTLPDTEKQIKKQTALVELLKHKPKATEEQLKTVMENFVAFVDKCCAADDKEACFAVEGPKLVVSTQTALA
# output: numeric value plus its unit

Request: # ΔΙ/Ιο, quenching of the BSA fluorescence lookup, item O=Cc1cc(F)ccc1[O-].O=Cc1cc(F)ccc1[O-].[Cu+2] [Complex 1, [Cu(5–F–salo)2]]
Result: 62.5%

Request: # ΔΙ/Ιο, quenching of the BSA fluorescence lookup, item O=Cc1cc(F)ccc1[O-].O=[N+]([O-])[O-].[Cu+2].c1cnc2c(c1)ccc1cccnc12 [Complex 4, [Cu(5–F–salo)(phen)(NO3)]]
Result: 75.3%

Request: # ΔΙ/Ιο, quenching of the BSA fluorescence lookup, item CO.Cc1ccc2ccc3ccc(C)nc3c2n1.O=Cc1cc(F)ccc1[O-].[Cl-].[Cu+2] [Complex 3, [Cu(5–F–salo)(neoc)Cl].CH3OH]
Result: 84.3%

Request: # ΔΙ/Ιο, quenching of the BSA fluorescence lookup, item O=Cc1cc(F)ccc1[O-].[Cl-].[Cu+2].c1ccc(Nc2ccccn2)nc1 [Complex 2, [Cu(5–F–salo)(bipyam)Cl]]
Result: 54.0%

Request: # ΔΙ/Ιο, quenching of the BSA fluorescence lookup, item O=Cc1cc(F)ccc1[O-].O=[N+]([O-])[O-].[Cu+2].c1ccc(-c2ccccn2)nc1 [Complex 5, [Cu(5–F–salo)(bipy)(NO3)]]
Result: 68.3%
